- Tested system: T1, mouse LRP6 (mouse, UniProt O88572 20-1613)
- T1 construct: whole, on cells; also called murine LRP6; endogenous LRP6 on NIH 3T3 cells
- T1 sequence (O88572 20-1613): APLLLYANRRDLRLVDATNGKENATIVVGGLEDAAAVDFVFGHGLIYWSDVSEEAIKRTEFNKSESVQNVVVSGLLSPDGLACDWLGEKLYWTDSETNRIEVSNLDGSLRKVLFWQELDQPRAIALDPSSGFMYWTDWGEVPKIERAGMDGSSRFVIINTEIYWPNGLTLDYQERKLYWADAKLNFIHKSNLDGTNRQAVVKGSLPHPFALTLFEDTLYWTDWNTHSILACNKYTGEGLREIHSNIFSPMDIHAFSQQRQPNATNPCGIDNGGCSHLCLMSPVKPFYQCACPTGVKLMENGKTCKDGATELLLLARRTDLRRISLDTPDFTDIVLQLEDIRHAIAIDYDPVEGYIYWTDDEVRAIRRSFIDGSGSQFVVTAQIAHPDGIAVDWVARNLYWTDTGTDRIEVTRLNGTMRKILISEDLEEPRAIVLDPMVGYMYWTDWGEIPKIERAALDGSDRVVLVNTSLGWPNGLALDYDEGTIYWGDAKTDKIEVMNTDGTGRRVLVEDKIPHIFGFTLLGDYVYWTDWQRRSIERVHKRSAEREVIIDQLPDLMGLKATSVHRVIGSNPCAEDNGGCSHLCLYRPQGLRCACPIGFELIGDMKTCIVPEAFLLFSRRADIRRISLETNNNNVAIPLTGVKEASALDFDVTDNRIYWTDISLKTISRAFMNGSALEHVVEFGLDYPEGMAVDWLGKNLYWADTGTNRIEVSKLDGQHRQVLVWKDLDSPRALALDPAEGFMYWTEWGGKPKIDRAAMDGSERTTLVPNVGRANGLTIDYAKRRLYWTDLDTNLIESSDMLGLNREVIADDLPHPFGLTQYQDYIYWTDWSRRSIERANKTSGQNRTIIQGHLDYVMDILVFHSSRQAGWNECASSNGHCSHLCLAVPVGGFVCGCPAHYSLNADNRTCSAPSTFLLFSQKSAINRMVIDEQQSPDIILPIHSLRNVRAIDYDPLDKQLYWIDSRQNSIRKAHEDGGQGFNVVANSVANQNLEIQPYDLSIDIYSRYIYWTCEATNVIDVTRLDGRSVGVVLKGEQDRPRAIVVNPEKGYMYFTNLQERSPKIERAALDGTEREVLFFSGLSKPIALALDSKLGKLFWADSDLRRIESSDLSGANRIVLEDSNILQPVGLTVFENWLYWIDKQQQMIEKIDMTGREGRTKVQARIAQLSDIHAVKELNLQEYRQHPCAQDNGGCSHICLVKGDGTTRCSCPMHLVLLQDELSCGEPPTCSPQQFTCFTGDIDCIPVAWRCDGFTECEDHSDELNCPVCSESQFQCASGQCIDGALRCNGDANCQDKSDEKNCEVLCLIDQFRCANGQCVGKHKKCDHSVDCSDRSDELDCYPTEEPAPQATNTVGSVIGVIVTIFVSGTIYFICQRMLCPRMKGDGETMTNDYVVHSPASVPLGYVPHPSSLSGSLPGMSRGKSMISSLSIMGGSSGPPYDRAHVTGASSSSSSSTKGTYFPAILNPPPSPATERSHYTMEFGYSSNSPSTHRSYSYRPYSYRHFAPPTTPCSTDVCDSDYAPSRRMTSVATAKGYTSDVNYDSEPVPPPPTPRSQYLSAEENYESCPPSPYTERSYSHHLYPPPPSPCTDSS
- Test details: FACS on NIH 3T3 cells, endogenous mouse LRP6
- Method: Cross-species reactivity to murine and cynomologus LRP6 was determined on cells by FACS analysis. FACS staining was performed essentially as described above. Human U266 cells (no expression of LRP6) were used as a negative control. To show cross-reactivity, cells expressing endogenous LRP6 of human (HEK293T/17) and mouse origin (NIH 3T3), or transiently transfected HEK293/T17 cells expressing cynomolgus LRP6, were treated and subjected to flow cytometry as described above.
pEC50 values, listed per item
Scale note: pEC50 = -log10(concentration in M).

INSERT INTO results (binder, recorded_result) VALUES
  ('MOR08545 Fab (Fab, V domains shown, also called Propeller 1 anti-LRP6 Fab MOR08545) VH: QVQLVESGGGLVQPGGSLRLSCAASGFTFSVNGMHWVRQAPGKGLEWVSVIDGMGHTYYADSVKGRFTISRDNSKNTLYLQMNSLRAEDTAVYYCARYDYIKYGAFDPWGQGTLVTVSS VL: DIELTQPPSVSVAPGQTARISCSGDNIGSKYVHWYQQKPGQAPVLVIYGDSNRPSGIPERFSGSNSGNTATLTISGTQAEDEADYYCTRTSTPISGVFGGGTKLTVLG', 10.22),
  ('MOR08473 Fab (Fab, V domains shown, also called Propeller 3 anti-LRP6 Fab MOR08473) VH: QVQLVESGGGLVQPGGSLRLSCAASGFTFSSYGMSWVRQAPGKGLEWVSNISNDGHYTYYADSVKGRFTISRDNSKNTLYLQMNSLRAEDTAVYYCARFQASYLDIMDYWGQGTLVTVSS VL: DIELTQPPSVSVAPGQSITISCSGDNIGSKYVHWYQQKPGQAPVLVIYNDSNRPSGIPERFSGSNSGNTATLTISGTQAEDEADYYCQAWGDNGTRVFGGGTKLTVLG', 9.34),
  ('MOR08168 Fab (Fab, V domains shown, HuCAL Fab expressed in E. coli from pMORPH X9/X11 FH vectors and purified by Ni-NTA; also called Propeller 1 anti-LRP6 Fab MOR08168) VH: QVQLVESGGGLVQPGGSLRLSCAASGFTFSDYVINWVRQAPGKGLEWVSGISWSGVNTHYADSVKGRFTISRDNSKNTLYLQMNSLRAEDTAVYYCARLGATANNIRYKFMDVWGQGTLVTVSS VL: DIELTQPPSVSVAPGQTARISCSGDSLRNKVYWYQQKPGQAPVLVIYKNNRPSGIPERFSGSNSGNTATLTISGTQAEDEADYYCQSYDGQKSLVFGGGTKLTVL', 9.92);

Enquiry: Indicate the recorded pEC50 value for this binder: MOR08193 Fab (Fab, V domains shown, also called Propeller 3 anti-LRP6 Fab MOR08193) VH: QVQLKESGPALVKPTQTLTLTCTFSGFSLSNRGGGVGWIRQPPGKALEWLAWIDWDDDKSYSTSLKTRLTISKDTSKNQVVLTMTNMDPVDTATYYCARMHLPLVFDSWGQGTLVTVSS VL: DIVLTQSPATLSLSPGERATLSCRASQFIGSRYLAWYQQKPGQAPRLLIYGASNRATGVPARFSGSGSGTDFTLTISSLEPEDFAVYYCQQYWSIPITFGQGTKVEIKR
Return: 10.10

Source of measurements: patent US20130058934A1
